molecular target: 5-hydroxytryptamine receptor 1A (Homo sapiens) (UniProt P08908); assay: Binding affinity to 5-HT1AR (unknown origin) at 1 uM relative to control
Sequence (P08908 whole entry): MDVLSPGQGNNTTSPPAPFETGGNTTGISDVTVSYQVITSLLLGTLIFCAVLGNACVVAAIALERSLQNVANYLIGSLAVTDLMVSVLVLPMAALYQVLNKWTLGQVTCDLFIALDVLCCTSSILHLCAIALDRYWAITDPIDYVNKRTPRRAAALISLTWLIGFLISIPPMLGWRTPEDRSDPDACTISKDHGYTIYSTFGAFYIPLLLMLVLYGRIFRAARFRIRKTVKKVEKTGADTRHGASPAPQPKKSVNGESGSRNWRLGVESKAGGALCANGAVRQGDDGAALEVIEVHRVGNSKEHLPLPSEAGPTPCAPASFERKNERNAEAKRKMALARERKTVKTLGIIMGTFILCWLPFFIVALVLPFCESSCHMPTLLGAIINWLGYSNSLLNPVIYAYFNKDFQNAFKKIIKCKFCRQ
The source made the active and inactive calls. No cut-off for these calls is given here.
Assay endpoint: Activity

Compound	Measured
COC1Cc2ccccc2[C@]2(CC[C@H](N(C)Cc3ccccc3)CC2)O1 (some centres undefined)	inactive
COC1Cc2ccccc2[C@]2(CC[C@H](N(C)CC3CCCCC3)CC2)O1 (some centres undefined)	60%
COC1Cc2ccccc2[C@]2(CC[C@@H](N(C)CC3CCCCC3)CC2)O1 (some centres undefined)	inactive
COC1Cc2ccccc2[C@]2(CC[C@@H](N(C)Cc3ccccc3)CC2)O1 (some centres undefined)	inactive
